system: COLO 205 colon; experiment: NCI tumour cell line growth inhibition, 48 h
measurementName: TGI

# TGI (compound: O=C1C=CC(=O)c2c(O)ccc(O)c21 ) is 1.66 µM

# TGI (compound: O=c1c2c([nH]c3ccccc13)CCCC2 ) is > 100 µM

# TGI (compound: CCCOP1(=O)C=C(O)C(Cl)=C(C)C1 (stereo not drawn) ) is > 100 µM

# TGI (compound: CCCC(=O)N(C(=O)CCC)C1=C(Cl)C(=O)c2ccccc2C1=O ) is > 23.3 µM

# TGI (compound: O=C(NO)C(=O)Nc1cc(Cl)ccc1Cl ) is > 100 µM

# TGI (compound: c1ccc(NNC2=NCCN2)cc1 ) is > 100 µM

# TGI (compound: CCOC(=O)/C(=C\c1ccccc1)C(=O)CCN1CCOCC1 ) is 8.93 µM

# TGI (compound: CCCCCOc1ccc(C=Nc2ccc(-c3ccc(N=Cc4ccc(OCCCCC)cc4)c(OC)c3)cc2OC)cc1 ) is > 100 µM

====

system: BT-549 breast; test: NCI tumour cell line growth inhibition, 48 h
measurementName: TGI (µM)
# number only, unit µM dropped from output

# TGI (compound: O=C1CSC(c2ccccc2O)N1c1ccc(-c2ccc(-n3c(-c4ccccc4)nc4ccccc4c3=O)cc2)cc1 (stereo not drawn) ) is 55.7

# TGI (compound: COC(=O)C1=C(OC(=O)c2ccccc2)C(C(=O)OC)[C@]2(O)[C@@H](C(=O)OC)C1CC(c1ccccc1OC)[C@@H]2C(=O)OC (stereo partly drawn) ) is 83.6

# TGI (compound: CCOC(=O)c1c(NC(=O)COc2cccc3cccnc23)sc(C(=O)N(C)C)c1C ) is 32.4

# TGI (compound: CCC(O)CC1OC2(CCC1C)CC1OC(=O)/C=C\C(C)(O)C(O)C(C)C(O)C(OC3CC(OC)C(O)C(C)O3)C(O)C(C)(O)CCC/C=C/C3CC(C)COC3(O)CC(O2)C1C (stereo not drawn) ) is 41.2

====

system: OVCAR-5 ovarian; experiment: NCI tumour cell line growth inhibition, 48 h
measurementName: TGI

# TGI (compound: CCOC(=O)NC(=O)c1cn(CCCOC(=O)CCCCCCCCC(=O)OCCCn2cc(C(=O)NC(=O)OCC)c(=O)n(C)c2=O)c(=O)n(C)c1=O ) is > 100 µM

# TGI (compound: O=C1NN=C2C=C(c3ccc(Cl)cc3)CC(c3cccc(Br)c3)C12 (centres undefined) ) is > 100 µM

# TGI (compound: CCOC(=O)C1(Cc2ccc3c(c2)CCC3)Cc2cc3c(cc2C1=O)CCC3 (centres undefined) ) is > 100 µM

# TGI (compound: COc1ccc(-c2cn3c(nc4ccccc43)c(/C=C/c3cccs3)n2)cc1 ) is > 100 µM

# TGI (compound: COc1ccc(C23OCC(Cc4cc(OC)c(OC)cc42)C3COC(C)=O)cc1OC (centres undefined) ) is > 100 µM

# TGI (compound: Brc1ccc(SCN(CSc2ccc(Br)cc2)Cc2ccccc2)cc1 ) is 11.4 µM

# TGI (compound: CCCC(=O)N(C(=O)CCC)C1=C(Cl)C(=O)c2ccccc2C1=O ) is 26 µM

# TGI (compound: CCOC(=O)c1c(NC(=O)COc2cccc3cccnc23)sc(C(=O)N(C)C)c1C ) is 37.3 µM

# TGI (compound: COc1ccc(N2C(=O)C3c4[nH]c5ccccc5c4C4CCC(c5ccccc5)CC4C3C2=O)cc1 (centres undefined) ) is > 100 µM

# TGI (compound: COc1cc(N2C(=O)C(=O)C3(CCCCC3)C2=O)cc(OC)c1OC ) is > 100 µM

# TGI (compound: COc1ccc(C2/C(=C(\O)c3ccccc3)C(=O)C(O)(CC(=O)c3ccccc3)N2c2ccc(OC)cc2)cc1 (centres undefined) ) is > 100 µM

# TGI (compound: CC(C)=CC(O)C(C(O)CCC1(C)OCCO1)S(=O)(=O)c1ccccc1 (centres undefined) ) is > 100 µM

# TGI (compound: CC(=O)[CH-]C(=O)c1ccccc1.CC(=O)[CH-]C(=O)c1ccccc1.CCN(CC)CC[O-].CCN(CC)CC[O-].Cl.[Hf+4] ) is > 100 µM

# TGI (compound: CCOC(=O)c1ccc2c(c1)[n+](=O)c(C(=O)C1CCCS1)c(C(F)(F)F)n2[O-] (centres undefined) ) is 2.76 µM

# TGI (compound: COc1ccc(Nc2nn3c(=O)c4c(C)c(C)sc4nc3s2)cc1 ) is > 100 µM

# TGI (compound: O=C(c1ccc(Cl)cc1Cl)N(/N=C/C=C/c1ccccc1)c1nnc(-c2ccccc2)c(-c2ccccc2)n1 ) is > 100 µM

# TGI (compound: COC1CCN(N(C)C)O1 (centres undefined) ) is > 100 µM

# TGI (compound: Cc1ccc(NC(=O)/C(CC2N=c3c(ccc4c(O)c5ccccc5c(O)c34)=NC2O)=N/NC(C)(C)C)cc1 (centres undefined) ) is > 100 µM

# TGI (compound: N#CC[C@@H](O)COc1ccccc1 ) is > 100 µM

# TGI (compound: O=C(CN=C(CN(c1ccccc1)c1ccccc1)Oc1c(Cl)cc(Cl)cc1Cl)N1c2ccccc2Sc2ccccc21 ) is > 100 µM

# TGI (compound: CCCCCOc1ccc(C=Nc2ccc(-c3ccc(N=Cc4ccc(OCCCCC)cc4)c(OC)c3)cc2OC)cc1 ) is > 100 µM

# TGI (compound: CCCc1nc(N)nc(C(=O)Nc2cccc(C(F)(F)F)c2)c1CC ) is > 100 µM

# TGI (compound: c1cc(-c2ccc(-c3ccc(C4=NCCCN4)cc3)o2)ccc1C1=NCCCN1 ) is > 100 µM

# TGI (compound: CCCCC(=O)OC[n+]1cccc(-c2c(COC(=O)NC(C)C)c(COC(=O)NC(C)C)c3n2CCC3)c1 ) is > 100 µM

# TGI (compound: CC1CN=C(N(Cc2ccc(F)cc2)C(=O)Nc2ccc(Cl)cc2)S1 (centres undefined) ) is > 100 µM

# TGI (compound: CC(C)=CCCC(C)[C@H]1CC(O)C2(C)C3=CCC4C(C)(C)[C@@H](O)CC[C@]4(C)C3=CC[C@]12C (some centres undefined) ) is > 100 µM

# TGI (compound: N#C/C(=C\c1cn(Cc2ccccc2)c2ccccc12)C(=O)Nc1ncc(Cc2ccccc2Cl)s1 ) is 4.59 µM

# TGI (compound: Nc1n[n+](=O)c2ccccc2n1O ) is > 100 µM

# TGI (compound: C/C(=N\NC(=S)Nc1ccccc1)c1nc2ncccc2[nH]1 ) is 61 µM

# TGI (compound: CCc1c(-c2ccc(OC)cc2)c(=O)oc2cc(O)ccc12 ) is > 100 µM

# TGI (compound: COc1ccc(C(=C[N+](=O)[O-])c2ccc(OC)cc2)cc1 ) is 99.5 µM

# TGI (compound: COc1cc(/C=C/C(=O)Nc2ccc3c(c2)/C(=C\c2cccn2C)C(=O)N3)cc(OC)c1OC ) is 35.2 µM

# TGI (compound: O=C1c2ccccc2-c2nc(-c3ccncc3)cc3c2c1nc1ccccc13 ) is > 100 µM

# TGI (compound: CN(C)CCN=C1c2ccccc2-c2c(=O)n(CCN(C)C)c(O)c3cccc1c23 ) is 0.794 µM

# TGI (compound: COc1cc(/C=C/C(=O)c2ccc(Nc3nc(Nc4ccc(F)cc4)nc(Nc4ccc(Cl)cc4)n3)cc2)cc(OC)c1OC ) is 45.5 µM

# TGI (compound: CCN(CC)CCn1ncc2c3c(=O)c4cccnc4n(CCN(CC)CC)c3ccc21 ) is > 10 µM

# TGI (compound: O=C1C(Cl)C(c2cc(Br)cc(Br)c2O)N1n1cnc2ccccc2c1=O (centres undefined) ) is 71.8 µM

# TGI (compound: COc1ccc(/C=C/c2nsc(/C=C/c3ccc(OC)cc3)n2)cc1 ) is > 100 µM

# TGI (compound: C=CCn1c(SCC(=O)Nc2ccc(C(=O)/C=C/c3cc(OC)c(OC)c(OC)c3)cc2)nnc1-c1ccc(Cl)cc1 ) is 67.7 µM
